All values here come from patent US20160002247A1.

Molecular target: Human autotaxin enzyme (Homo sapiens, UniProt Q13822)
Construct: purchased R&D System
Assay: Evaluation of autotaxin inhibitor, Method C (Test Example 3): 18:0 Lyso PC, choline assay, Resorufin fluorescence
Type: biochemical
Details: Assay Method C (Test Example 3), human autotaxin, 18:0 Lyso PC substrate; read-out: Inhibitory Activity (autotaxin enzyme inhibitory activity, IC50 class)
measureName: IC50

// solved cases for IC50 follow
compoundstring=CCCCCn1c(N2C[C@@H](F)C[C@H]2C(=O)NCCC(=O)OCC)cc(=O)n2cc(-c3ccc(Cl)cc3)nc12 measurename=IC50 recordedmeasurement="10 to 100 nM"
compoundstring=CCCCCn1c(N2CCC[C@H](C(=O)NCC(=O)O)C2)cc(=O)n2cc(-c3ccc(Cl)cc3)nc12 measurename=IC50 recordedmeasurement="< 10 nM"
compoundstring=CCCCCn1c(N2CCC[C@H]2C(=O)NCCN2CCOCC2)cc(=O)n2cc(-c3ccc(Cl)cc3)nc12 measurename=IC50 recordedmeasurement="100 to 1000 nM"

Kindly review the next compound as well.
Which IC50 reading was recorded for the compound CCCCCn1c(N2CCC[C@H]2C(=O)NCCCC(=O)O)cc(=O)n2cc(-c3ccc(Cl)cc3)nc12 ?
< 10 nM

###

Molecular target: Human autotaxin enzyme (Homo sapiens)
Construct: purchased R&D System
Experiment: Evaluation of autotaxin inhibitor, Method C (Test Example 3): 18:0 Lyso PC, choline assay, Resorufin fluorescence
Assay type: biochemical
Conditions: Assay Method C (Test Example 3), human autotaxin, 18:0 Lyso PC substrate; read-out: Inhibitory Activity (autotaxin enzyme inhibitory activity, IC50 class)
measureName: IC50

compound=CCCCCn1c(-c2ccc(C(=O)N3CCN(CCOC)CC3)cc2)cc(=O)n2cc(-c3ccc(Cl)cc3)nc12 systemtested="Human autotaxin enzyme (Homo sapiens)" recordedmeasurement="10 to 100 nM"
compound=CCCCCn1c(N2CCC[C@H]2C(=O)NCCCN2CCCC2)cc(=O)n2cc(-c3ccc(Cl)cc3)nc12 systemtested="Human autotaxin enzyme (Homo sapiens)" recordedmeasurement="> 1000 nM"
compound=CCCCCn1c(-c2ccc(C(=O)NCCc3cncn3C)cc2)cc(=O)n2cc(-c3ccc(Cl)cc3)nc12 systemtested="Human autotaxin enzyme (Homo sapiens)" recordedmeasurement="10 to 100 nM"
compound=CCCCCn1c(-c2ccc(C(=O)N(C)CCO)cc2)cc(=O)n2cc(-c3ccc(Cl)cc3)nc12 systemtested="Human autotaxin enzyme (Homo sapiens)" recordedmeasurement="10 to 100 nM"
compound=Cn1c(N2CCC[C@H]2C(=O)N[C@@H](CCc2ccccc2)C(=O)O)cc(=O)n2cc(-c3ccc(Cl)cc3)nc12 systemtested="Human autotaxin enzyme (Homo sapiens)" recordedmeasurement="10 to 100 nM"
compound=CCCCCn1c(C)c(CC(=O)OCC)c(=O)n2cc(-c3ccc(Cl)cc3)nc12 systemtested="Human autotaxin enzyme (Homo sapiens)" recordedmeasurement="10 to 100 nM"
compound=CCCCCn1c(N2CCC(C(=O)N3CCCC3=O)CC2)cc(=O)n2cc(-c3ccc(Cl)cc3)nc12 systemtested="Human autotaxin enzyme (Homo sapiens)" recordedmeasurement="10 to 100 nM"
compound=CCCCCn1c(N2CCC[C@H]2C(=O)N[C@@H](CC)C(=O)O)cc(=O)n2cc(-c3ccc(Cl)cc3)nc12 systemtested="Human autotaxin enzyme (Homo sapiens)" recordedmeasurement="< 10 nM"
compound=CCCCCn1c(N2CCC[C@H]2C(=O)NC2(C(=O)O)CC2)cc(=O)n2cc(-c3ccc(Cl)cc3)nc12 systemtested="Human autotaxin enzyme (Homo sapiens)" recordedmeasurement="< 10 nM"
compound="CCCCCn1c(N2CCCC(CC(=O)O)C2)cc(=O)n2cc(-c3ccc(Cl)cc3)nc12 (stereo not drawn)" systemtested="Human autotaxin enzyme (Homo sapiens)" recordedmeasurement="10 to 100 nM"

Which IC50 reading was recorded for the compound CCCCCn1c(NCCCC(=O)O)cc(=O)n2cc(-c3ccc(Cl)cc3)nc12 ?
10 to 100 nM

Which IC50 reading was recorded for the compound CCCCCn1c(N2CCCC(c3ccccc3)C2)cc(=O)n2cc(-c3ccc(Cl)cc3)nc12 (stereo not drawn) ?
> 1000 nM

Which IC50 reading was recorded for the compound CCCCCn1c(N2CCC(CCc3ccccc3)C2)cc(=O)n2cc(-c3ccc(Cl)cc3)nc12 (stereo not drawn) ?
> 1000 nM

Which IC50 reading was recorded for the compound CCCCCn1c(N(C)C(C)=O)cc(=O)n2cc(-c3ccc(Cl)cc3)nc12 ?
> 1000 nM

Which IC50 reading was recorded for the compound CCCCCn1c(N2CCC[C@H]2C(=O)NC2(C(=O)OC)CC2)cc(=O)n2cc(-c3ccc(Cl)cc3)nc12 ?
10 to 100 nM
